# ASSAYED TARGET: anti-MPA Fab antibody
# PROTOCOL: SPR (Biacore T200), 1:1 Langmuir kinetics, binding to immobilized anti-MPA Fab
# CONDITION DETAILS: MPA and anti-MPA Fab interaction; in agreement with previous SPR affinity in solution results; read-out: Affinity constant
QUANTITY KIND: Kd

Consider the compound shown here: COc1c(C)c2c(c(O)c1C/C=C(\C)CCC(=O)O)C(=O)OC2 What is its recorded Kd?
~40 nM
